Exercise: state measured EC50 for each of the binders provided.
experimental_system: T1, human CD73 expressed at the cell surface (human, UniProt P21589 27-549)
T1 construct: GPI-anchored dimer on cells; also called huCD73; cellular CD73
T1 sequence: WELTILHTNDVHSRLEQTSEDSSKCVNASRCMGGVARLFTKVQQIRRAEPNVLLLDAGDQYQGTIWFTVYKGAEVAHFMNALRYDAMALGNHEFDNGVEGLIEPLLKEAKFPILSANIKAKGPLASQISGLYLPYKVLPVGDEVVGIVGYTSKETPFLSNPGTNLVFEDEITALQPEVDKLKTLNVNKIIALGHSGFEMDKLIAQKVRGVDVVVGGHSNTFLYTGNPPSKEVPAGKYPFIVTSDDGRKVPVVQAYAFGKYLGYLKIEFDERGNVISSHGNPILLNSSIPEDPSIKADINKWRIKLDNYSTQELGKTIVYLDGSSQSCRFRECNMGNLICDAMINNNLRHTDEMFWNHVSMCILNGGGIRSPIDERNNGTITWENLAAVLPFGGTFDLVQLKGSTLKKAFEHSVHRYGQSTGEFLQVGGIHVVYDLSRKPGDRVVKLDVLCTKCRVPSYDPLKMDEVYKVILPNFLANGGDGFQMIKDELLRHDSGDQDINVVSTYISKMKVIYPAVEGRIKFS
method_description: flow cytometry on MDA-MB-231 cells pre-incubated with 200 µM APCP

Sample records with EC50:
binder	EC50
antibody 8C7 (antibody, human IgG1, V domains shown, Produced as chimeric human IgG1 with heavy chain N297Q (Kabat EU numbering); RTVAAP)) VH: EVQLQQSGPELVKPGASVKVSCKASGYAFASYNMNWVKQSHGKSLDWIGYIDPYNGGSSYNLTFKGKATLTVDKSSTTAYMHLNSLTSEDSAVYYCARGYGNYKAWFAYWGQGTLVTVSA VL: SIVMTPTPKFLLVSAGDRVTITCKASQSVSNDVAWYQQKPGQSPKLLIYYASTRYTGVPDRFTGSGYGTDFTFTISTVQAEDLAVYFCQQDYSSLTFGAGTKLELKR	0.143 µg/mL
antibody 6E1 (antibody, human IgG1, V domains shown, Produced as chimeric human IgG1 with heavy chain N297Q (Kabat EU numbering)) VH: EFQLQQSGPELVKPGASVKVSCKASGYAFTSYNMYWVKQSHGKRLEWIGYIDPYNGGSSYNQKFKGKATLTVDKSSSTAYMHLNNLTSEDSAVYYCARGYNNYKAWFAYWGQGTLVTVSA VL: SIVMTQTPKFLLVSAGDRVTITCKASQSVTNDVAWYQQKPGQSPKLLIYYASNRYTGVPDRFTGSGYGTDFTFTISTMQAEDLAVYFCQQDYSSLTFGAGTKLELK	0.0395 µg/mL
antibody AD2 (Biolegend, product ref. 344004) (antibody, V domains shown) VH: EVQLQQSGAELVKPGASVKLSCTASGFNIKDTYIHWVKQRPEQGLEWIGRIDPATGNTEYDPKFQGKATITADTSSNTAYLHLSSLTSEDTAVYYCARGYYGSSYPPWFAYWGQGTLVTVS VL: DIVMTQSHKFMSTSVGDRVSITCKASQDVGSAVAWYQQKPGQSPKLLIYWASTRHTGVPDRFTGSGSGTDFTLTISNVQSEDLADYFCQQYSSYPLTFGAGTKLELK	0.0959 µg/mL

State the recorded EC50 for every item in the following list.
1. antibody 11E1 (antibody, human IgG1, V domains shown, Produced as chimeric human IgG1 with heavy chain N297Q (Kabat EU numbering); also called 1E11) VH: EIQLQQSGPELVKPGASVKVSCKASGYAFTSYNMYWVKQSHGKSLEWIGYIDPYNGGTSYNQKFKGKATLTVDKSSSTAYMHLNSLTSEDSAVYYCARGYGNYKAWFAYWGQGTLVTVSA VL: DAVMTQTPKFLLVSAGDRVTITCKASQSVTNDVAWYQQKPGQSPKLLIYYASNRYTGVPDRFTGSGYGTDFTFTISTVQAEDLAVYFCQQDYSSLTFGAGTKLELK
2. antibody 3C12 (antibody, human IgG1, V domains shown, Produced as chimeric human IgG1 with heavy chain N297Q (Kabat EU numbering); RTVAAP)) VH: QIQLQQSGPELVKPGASVKVSCKASGYAFASYNMNWVKQSHGKSLDWIGYIDPYNGGSSYNLTFKGKATLTVDKSSTTAYMHLNSLTSEDSAVYYCARGYGNYKAWFAYWGQGTLVTVSA VL: DVVMTQTPKFLLVSAGDRVTITCKASQSVSNDVAWYQQKPGQSPKLLIYYASTRYTGVPDRFTGSGYGTDFTFTISTVQAEDLAVYFCQQDYSSLTFGAGTKLELKR

output:
["0.0375 µg/mL", "0.0431 µg/mL"]
